- Test system: HL-60
- ASSAY DETAILS: In vitro evaluation of inhibitory activity of HL60 human promyelocytic tumor cell
- Assay type: functional
- TEST PARAMETERS: read-out: ED50 (the source's name)
pEC50: −log10 of the molar value.
Listed below: pEC50 values for each entry.

COMPOUND: Nc1c(C(=O)NC(CN(O)N=O)C(=O)O)ncn1[C@@H]1O[C@H](CO)[C@@H](O)[C@H]1O (some centres not stated)
OP: <
pEC50: 4.00
//
COMPOUND: N[C@@H](CN(O)N=O)C(=O)O [LALANOSINE]
OP: =
pEC50: 5.70
